biological target: integrin αV/β5 (Homo sapiens, UniProt P06756+P18084); assay: FAK phosphorylation in HEK293T cells with forced expression of integrin αV/β5; settings: HEK293T with forced expression of integrin αV/β5, in the presence of irisin, from immunoblot; read-out: IC50 for blocking irisin-integrin αV/β5 signaling (phosphorylation of FAK)
Sequence (P06756 31-889 limits assumed): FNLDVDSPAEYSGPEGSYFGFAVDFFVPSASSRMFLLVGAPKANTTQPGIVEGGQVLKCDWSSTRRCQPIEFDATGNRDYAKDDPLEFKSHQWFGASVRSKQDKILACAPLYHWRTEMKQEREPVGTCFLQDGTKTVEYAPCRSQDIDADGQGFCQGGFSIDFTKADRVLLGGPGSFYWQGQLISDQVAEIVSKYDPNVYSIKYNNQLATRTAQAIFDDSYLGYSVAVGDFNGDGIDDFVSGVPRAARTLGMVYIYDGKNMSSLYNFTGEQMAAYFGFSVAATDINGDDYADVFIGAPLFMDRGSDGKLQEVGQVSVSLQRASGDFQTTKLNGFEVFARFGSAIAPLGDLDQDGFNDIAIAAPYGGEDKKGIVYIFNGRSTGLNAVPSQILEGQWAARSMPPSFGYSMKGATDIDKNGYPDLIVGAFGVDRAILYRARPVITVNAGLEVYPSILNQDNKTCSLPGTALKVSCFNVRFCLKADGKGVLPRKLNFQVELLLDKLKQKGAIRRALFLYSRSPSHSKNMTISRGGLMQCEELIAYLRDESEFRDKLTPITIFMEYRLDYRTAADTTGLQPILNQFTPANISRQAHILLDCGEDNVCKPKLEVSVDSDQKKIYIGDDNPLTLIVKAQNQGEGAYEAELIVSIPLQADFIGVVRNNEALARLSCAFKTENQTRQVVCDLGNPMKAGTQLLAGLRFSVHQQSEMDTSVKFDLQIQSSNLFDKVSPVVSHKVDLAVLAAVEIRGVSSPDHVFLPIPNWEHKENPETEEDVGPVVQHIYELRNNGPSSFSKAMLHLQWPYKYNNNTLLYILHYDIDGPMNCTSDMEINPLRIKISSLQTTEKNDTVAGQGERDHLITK
Sequence (P06756 891-1048 partner limits assumed): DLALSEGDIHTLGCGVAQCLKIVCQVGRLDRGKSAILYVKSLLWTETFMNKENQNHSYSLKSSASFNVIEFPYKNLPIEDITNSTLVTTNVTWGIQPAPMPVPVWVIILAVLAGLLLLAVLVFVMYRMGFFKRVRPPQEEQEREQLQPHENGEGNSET
Sequence (P18084 24-799): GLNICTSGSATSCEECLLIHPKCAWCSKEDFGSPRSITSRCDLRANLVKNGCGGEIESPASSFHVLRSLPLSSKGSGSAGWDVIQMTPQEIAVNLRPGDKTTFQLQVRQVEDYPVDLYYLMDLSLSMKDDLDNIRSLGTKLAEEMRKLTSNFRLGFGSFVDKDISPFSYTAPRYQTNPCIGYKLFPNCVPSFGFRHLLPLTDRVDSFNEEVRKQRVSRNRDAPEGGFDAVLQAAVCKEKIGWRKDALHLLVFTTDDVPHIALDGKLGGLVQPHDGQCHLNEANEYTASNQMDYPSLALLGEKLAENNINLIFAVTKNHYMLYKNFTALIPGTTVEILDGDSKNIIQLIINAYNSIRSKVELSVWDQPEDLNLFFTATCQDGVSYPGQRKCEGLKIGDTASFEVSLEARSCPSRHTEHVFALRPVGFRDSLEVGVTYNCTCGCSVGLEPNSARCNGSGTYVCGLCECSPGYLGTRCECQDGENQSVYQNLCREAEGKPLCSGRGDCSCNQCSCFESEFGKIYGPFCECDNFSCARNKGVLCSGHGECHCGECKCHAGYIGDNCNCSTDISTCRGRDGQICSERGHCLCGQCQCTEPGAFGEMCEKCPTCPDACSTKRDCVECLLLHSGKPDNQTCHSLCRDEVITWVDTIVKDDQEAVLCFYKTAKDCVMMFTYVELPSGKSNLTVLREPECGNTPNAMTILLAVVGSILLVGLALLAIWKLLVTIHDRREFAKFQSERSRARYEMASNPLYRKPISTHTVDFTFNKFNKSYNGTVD
pIC50: −log10 of the molar value.
measured-metric: pIC50

Q) Using integrin αV/β5 (Homo sapiens, UniProt P06756+P18084) as the test system, report measured pIC50 of N=C(N)NCCC[C@@H]1NC(=O)[C@H](CCCCN)NC(=O)[C@@H](Cc2ccc(O)cc2)NC(=O)[C@H](CC(=O)O)NC(=O)CNC1=O [cyclo RGDyK] .
A) 7.30 to 8.00
